Conditions: human
Endpoint: Hepatotoxicity (choleostasis)
Answers are plain numbers.

{"Molecule": "CC(=O)Nc1ccc(OC(=O)c2ccccc2OC(C)=O)cc1 [BENORILATE]", "Hepatotoxicity (choleostasis)": 0}
{"Molecule": "CCOC(=O)C1=C(COCCN)NC(C)=C(C(=O)OC)C1c1ccccc1Cl (stereo not given)", "Hepatotoxicity (choleostasis)": 2}
{"Molecule": "CCC(=O)O[C@@H](O[P@](=O)(CCCCc1ccccc1)CC(=O)N1C[C@H](C2CCCCC2)C[C@H]1C(=O)O)C(C)C", "Hepatotoxicity (choleostasis)": 2}
{"Molecule": "Clc1ccc2c(c1)C(N1CCNCC1)=Nc1ccccc1O2", "Hepatotoxicity (choleostasis)": 0}

# ---- query molecule ----
Input: Give Hepatotoxicity (choleostasis) for the following molecule: Cc1ccc(S(=O)(=O)NC(=O)NN2CC3CCCC3C2)cc1 (stereo not given) [GLICLAZIDE]
Output: 1

----------
Could you please report measured Hepatotoxicity (cytolytic) for the items listed next?
Conditions: human
Numbers only.

{"Compound": "CC[C@H](C)[C@H]1NC(=O)[C@@H](NC(=O)[C@@H](CC(C)C)N(C)C(=O)[C@@H]2CCCN2C(=O)C(C)O)[C@@H](C)OC(=O)[C@H](Cc2ccc(OC)cc2)N(C)C(=O)[C@@H]2CCCN2C(=O)[C@H](CC(C)C)NC(=O)[C@@H](C)C(=O)[C@H](C(C)C)OC(=O)C[C@@H]1O (some centres undefined)", "Hepatotoxicity (cytolytic)": 0}
{"Compound": "CCC(C(=O)NC(N)=O)c1ccccc1 (centres undefined) [PHENETURIDE]", "Hepatotoxicity (cytolytic)": 0}
{"Compound": "C[C@]1(O)CC[C@H]2[C@@H]3CCC4=CC(=O)CC[C@]4(C)[C@@]3(F)[C@@H](O)C[C@@]21C", "Hepatotoxicity (cytolytic)": 0}
{"Compound": "C[C@H]1[C@H](OC(=O)CCC(=O)O)O[C@@H]2O[C@@]3(C)CC[C@H]4[C@H](C)CC[C@@H]1[C@@]24OO3 [ARTESUNATE]", "Hepatotoxicity (cytolytic)": 1}
{"Compound": "Cc1c(Cl)cccc1Nc1ccccc1C(=O)O", "Hepatotoxicity (cytolytic)": 1}

Could I get Hepatotoxicity (cytolytic) for every one of these entries?
1. CC(C)C[C@H]1C(=O)N2CCC[C@H]2[C@]2(O)O[C@](NC(=O)[C@@H]3C=C4c5cccc6[nH]c(Br)c(c56)C[C@H]4N(C)C3)(C(C)C)C(=O)N12
2. C[C@@H](c1ncncc1F)[C@](O)(Cn1cncn1)c1ccc(F)cc1F
3. CN1C2CCCC1CC(NC(=O)c1nn(C)c3ccccc13)C2 (centres undefined)
4. CO[C@@H]1[C@@H](OC(N)=O)[C@@H](O)[C@H](Oc2ccc3c(O)c(NC(=O)c4ccc(O)c(CC=C(C)C)c4)c(=O)oc3c2C)OC1(C)C
5. CC(C)Nc1cccnc1N1CCN(C(=O)c2cc3cc(NS(C)(=O)=O)ccc3[nH]2)CC1
6. Cc1nc(C)c2c(n1)N(Cc1ccc(-c3ccccc3-c3nnn[nH]3)cc1)C(=O)CC2
7. NC[C@H]1O[C@H](O[C@H]2[C@H](O)[C@@H](O[C@H]3O[C@H](CO)[C@@H](O)[C@H](N)[C@H]3O)[C@H](N)C[C@@H]2N)[C@H](N)C[C@@H]1O
8. CCC(C)C(C)(COC(N)=O)COC(N)=O (centres undefined) [MEBUTAMATE]

Output:
2
1
0
2
0
0
0
0

Input: Give Hepatotoxicity (cytolytic) for the following compound: CN1CCN(CCCN2c3ccccc3Sc3ccccc32)CC1
Output: 2
